Entries and their cytotoxicity at 10 µM
assay: Toxicity liver stage against HepG2, at 10uM; assay type: cell-based; set-up: test concentration 10 uM, cell line HepG2-A16-CD81EGFP; settings: human, HepG2-A16-CD81EGFP cells; read-out: INHIBITION
Record the value in %, omitting the unit from your answer.

stdin: What value of cytotoxicity at 10 µM has been recorded for this entry: CNS(=O)(=O)c1cccc(C(C)NCc2ccc(C)o2)c1 (stereo unspecified)
stdout: -3.69

stdin: What value of cytotoxicity at 10 µM has been recorded for this entry: COc1ccc(N2CCN(C(=O)Cn3nccc3C)CC2(C)C)cc1
stdout: 6.68

stdin: What value of cytotoxicity at 10 µM has been recorded for this entry: CSCCC(O)C(=O)N1CCCN(Cc2ccc(F)cc2)CC1 (stereo unspecified)
stdout: 5.14

stdin: What value of cytotoxicity at 10 µM has been recorded for this entry: c1ccc(CCN2CCC(OCC3CCCCO3)CC2)nc1 (stereo unspecified)
stdout: -4.9

stdin: What value of cytotoxicity at 10 µM has been recorded for this entry: c1ccc(Cc2nnc([C@H]3CCN(C4CCCCC4)C3)o2)cc1
stdout: -1.14
